- Test system: HL-60
- assayMethodText: area under dose-response curve (viability, 1 nM-10 uM) (fraction (0-1)); higher = more sensitive
- setupConditions: 72 h; co-treatment: AZD3965 100 nM
readoutName: area under dose-response curve

structuresmilesstring=O=c1oc2c(O)c(O)cc3c(=O)oc4c(O)c(O)cc1c4c23 readoutname="area under dose-response curve" endpointvalue="< 0.0301"
structuresmilesstring=CC(C)c1onc(-c2c(Cl)cccc2Cl)c1COc1ccc(/C=C/c2cccc(C(=O)O)c2)c(Cl)c1 readoutname="area under dose-response curve" endpointvalue="< 0.0301"
structuresmilesstring=COc1ccc2c(C(=S)N(C)CC(=O)O)cccc2c1C(F)(F)F readoutname="area under dose-response curve" endpointvalue="< 0.0301"
structuresmilesstring=CCCCN1C[C@H](O)[C@@H](O)[C@H](O)[C@H]1CO readoutname="area under dose-response curve" endpointvalue="< 0.0301"
structuresmilesstring=N#CC(C#N)=NNc1ccc(OC(F)(F)F)cc1 readoutname="area under dose-response curve" endpointvalue=0.104

====

- Tested on: HEL
- assayMethodText: cell viability (% survival relative to DMSO control, bortezomib = 0%); higher = less cytotoxic
- setupConditions: 10 nM; 72 h
readoutName: cell viability (%)

compound="CCCc1cc(-c2nc(-c3ccc(C)cc3)cs2)ccn1 [Fatostatin]" endpointvalue=97.8
compound="Cc1ccccc1C(C(=O)NC1CCCCC1)N(C(=O)Cn1ccnc1C)c1cccc(F)c1 (centres undefined) [AGI-5198]" endpointvalue=104
compound="O=C(O)Cn1nnc(-c2cc(N3CCC(Oc4cc(F)ccc4Br)CC3)no2)n1 [MK-8245]" endpointvalue=115
compound="O=c1cc(-c2ccccc2)oc2cc(O)c(O)c(O)c12 [Baicalein]" endpointvalue=88.2
compound="COc1ccc(S(=O)(=O)N2CCN(S(=O)(=O)c3ccc4c(c3)OCCO4)CC2)cc1 [BML283]" endpointvalue=88.3
compound="NC(=O)c1cccc(-c2cccc(OC(=O)NC3CCCCC3)c2)c1 [URB-597]" endpointvalue=104
compound="Cc1coc2c1C(=O)C(=O)c1c-2ccc2c1CCCC2(C)C [Tanshinone IIA]" endpointvalue=100
compound=O=C(NCCCCCCNC(=O)ONC1=CCCCC1)ONC1=CCCCC1 endpointvalue=104
compound="CC(C)c1cc2c(c(O)c1O)[C@@]1(C(=O)O)CCCC(C)(C)[C@@H]1CC2 [Carnosic acid]" endpointvalue=112

====

- Test system: NOMO-1
- assayMethodText: cell viability (% survival relative to DMSO control, bortezomib = 0%); higher = less cytotoxic
- setupConditions: 10000 nM; 72 h
# reported cell viability; entries follow
readoutName: cell viability (%)

molecule=O=C(NCCCCCCNC(=O)ONC1=CCCCC1)ONC1=CCCCC1 readoutname="cell viability" endpointvalue=102
molecule="O=C(O)CCCCC(CCSCc1ccccc1)SCc1ccccc1 (centres undefined) [CPI-613]" readoutname="cell viability" endpointvalue=97.2
molecule="NC(=O)c1cccc(-c2cccc(OC(=O)NC3CCCCC3)c2)c1 [URB-597]" readoutname="cell viability" endpointvalue=110
molecule="O=C(O)c1cc(N=Nc2ccc(S(=O)(=O)Nc3ccccn3)cc2)ccc1O [Sulfasalazine]" readoutname="cell viability" endpointvalue=102

====

Each entry below carries its recorded cell viability.
- Test system: myeloid leukemia patient primary cells Pat.7
- assayMethodText: cell viability (% survival relative to DMSO control); higher = less cytotoxic
- setupConditions: 1000 nM; 72 h
readoutName: cell viability (%)

structuresmilesstring=Cc1c(-c2ccc(-c3ccccc3F)cc2)nc2ccc(F)cc2c1C(=O)O readoutname="cell viability" displayunit=% reportedrelation== endpointvalue=60.6
structuresmilesstring=O=C(O)C1=CC(=C(c2ccc(O)c(C(=O)O)c2)c2ccc(O)c(C(=O)O)c2)C=CC1=O readoutname="cell viability" displayunit=% reportedrelation=> endpointvalue=100
structuresmilesstring=COc1cc(/C=C/C(=O)N2CCC=CC2=O)cc(OC)c1OC readoutname="cell viability" displayunit=% reportedrelation== endpointvalue=78.6
structuresmilesstring=COC(=O)[C@]12CCC(C)(C)C[C@H]1[C@H]1C(=O)C=C3[C@@]4(C)C=C(C#N)C(=O)C(C)(C)[C@@H]4CC[C@@]3(C)[C@]1(C)CC2 readoutname="cell viability" displayunit=% reportedrelation=< endpointvalue=0
structuresmilesstring=CC[C@@]1(O)C(=O)OCc2c1cc1n(c2=O)Cc2cc3c(CN(C)C)c(O)ccc3nc2-1 readoutname="cell viability" displayunit=% reportedrelation== endpointvalue=34.7
structuresmilesstring=CCC(=O)N1CCN(c2ccc(-n3c(=O)ccc4cnc5ccc(-c6cnc7ccccc7c6)cc5c43)cc2C(F)(F)F)CC1 readoutname="cell viability" displayunit=% reportedrelation== endpointvalue=44.8
